Molecular target: T1, LRRC7, Q96NW7
T1 sequence (Q96NW7 1440-1537, limits assumed, looked up): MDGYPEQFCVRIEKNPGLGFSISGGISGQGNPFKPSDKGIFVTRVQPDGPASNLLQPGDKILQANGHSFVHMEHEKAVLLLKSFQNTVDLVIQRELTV
Assay: holdup assay
Parameters: key: below the threshold = too weak to quantify, mostly under pKd 3.1 to 4
Details: plain residues with an end cap or a label only (N-terminal biotin on a linker: ado-ado)
PROPERTY_NAME: pKd

NTANRRTTPV [CACNG2, Q9Y698] :: below the threshold
ARSAAASNYV [CLDN4, O14493] :: below the threshold
KSRVAFFEEL [NF2, P35240] :: 3.5
TNSRHGETTV [FZD2, Q14332] :: below the threshold
GIKKITSTAL [RPS6KA3, P51812] :: below the threshold
QLSFNTDTLC [ABCA2, Q9BZC7] :: below the threshold
QKAPTKEFYA [SDC2, P34741] :: below the threshold
AQRARSPSDV [GPR12, P47775] :: below the threshold
